# System: A549
# protocolDetails: Cytotoxicity against human A549 cells after 72 hrs by MTT assay
# Assay type: functional, cell-based
# measurementSetup: A549, 72 h
pIC50: −log10 of the molar value.
Items are presented alongside their recorded pIC50.
experimentalEndpoint: pIC50

INSERT INTO results (compoundstructure, assayedtarget, experimentalendpoint, measuredresult) VALUES
  ('COc1cc2c(Oc3ccc(N/C=C4\C(=O)NC(=O)N(c5ccc(F)c(Cl)c5)C4=O)cc3F)ccnc2cc1OCCCN1CCOCC1', 'A549', 'pIC50', 6.57),
  ('COc1cc2c(Oc3ccc(N/C=C4\C(=O)NC(=O)N(c5ccc(F)cc5)C4=O)cc3F)ccnc2cc1OCCCN1CCC(C)CC1', 'A549', 'pIC50', 6.46),
  ('COc1cc2c(Oc3ccc(N/C=C4\C(=O)NC(=O)N(c5ccc(C)cc5)C4=O)cc3F)ccnc2cc1OCCCN1CCOCC1', 'A549', 'pIC50', 6.96),
  ('COc1cc2c(Oc3ccc(N/C=C4\C(=O)NC(=O)N(c5ccc(C)cc5)C4=O)cc3F)ccnc2cc1OCCCN1CCCCC1', 'A549', 'pIC50', 6.42),
  ('COc1cc2c(Oc3ccc(N/C=C4\C(=O)NC(=O)N(c5ccc(F)cc5)C4=O)cc3F)ccnc2cc1OCCCN1CCN(C)CC1', 'A549', 'pIC50', 6.29),
  ('COc1cc2c(Oc3ccc(N/C=C4\C(=O)NC(=O)N(c5ccccc5)C4=O)cc3F)ccnc2cc1OCCCN1CCCCC1', 'A549', 'pIC50', 6.29),
  ('COc1cc2c(Oc3ccc(N/C=C4\C(=O)NC(=O)N(c5ccc(F)c(Cl)c5)C4=O)cc3F)ccnc2cc1OCCCN1CCCC1', 'A549', 'pIC50', 6.72),
  ('COc1cc2c(Oc3ccc(N/C=C4\C(=O)NC(=O)N(c5ccc(F)cc5F)C4=O)cc3F)ccnc2cc1OCCCN1CCN(C)CC1', 'A549', 'pIC50', 6.42),
  ('COc1cc(N2C(=O)NC(=O)/C(=C\Nc3ccc(Oc4ccnc5cc(OCCCN6CCCC6)c(OC)cc45)c(F)c3)C2=O)c(OC)cc1Cl', 'A549', 'pIC50', 6.42),
  ('COc1cc2c(Oc3ccc(N/C=C4\C(=O)NC(=O)N(c5c(C)cccc5C)C4=O)cc3F)ccnc2cc1OCCCN1CCCC1', 'A549', 'pIC50', 6.64),
  ('COc1cc2c(Oc3ccc(N/C=C4\C(=O)NC(=O)N(c5ccc(F)c(Cl)c5)C4=O)cc3F)ccnc2cc1OCCCN1CCN(C)CC1', 'A549', 'pIC50', 6.51),
  ('COc1cc2c(Oc3ccc(N/C=C4\C(=O)NC(=O)N(c5ccccc5)C4=O)cc3F)ccnc2cc1OCCCN1CCOCC1', 'A549', 'pIC50', 6.03),
  ('COc1cc2c(Oc3ccc(N/C=C4\C(=O)NC(=O)N(c5ccc(C)cc5)C4=O)cc3F)ccnc2cc1OCCCN1CCC(C)CC1', 'A549', 'pIC50', 6.00),
  ('COc1cc2c(Oc3ccc(N/C=C4\C(=O)NC(=O)N(c5ccc(F)c(Cl)c5)C4=O)cc3F)ccnc2cc1OCCCN1CCCCC1', 'A549', 'pIC50', 6.74),
  ('COc1cc2c(Oc3ccc(N/C=C4\C(=O)NC(=O)N(c5c(C)cccc5C)C4=O)cc3F)ccnc2cc1OCCCN1CCCCC1', 'A549', 'pIC50', 6.51),
  ('COc1cc2c(Oc3ccc(N/C=C4\C(=O)NC(=O)N(c5ccccc5)C4=O)cc3F)ccnc2cc1OCCCN1CCC(C)CC1', 'A549', 'pIC50', 6.41);

----------
# protocolDetails: Cytotoxicity against human H460 cells after 72 hrs by MTT assay
# measurementSetup: NCI-H460, 72 h
Here the recorded log10 IC50 is given for each entry.
experimentalEndpoint: log10 IC50 (log10 of the value in nM)

INSERT INTO assay_data (compoundstructure, measuredresult) VALUES
  ('COc1cc2c(Oc3ccc(N/C=C4\C(=O)NC(=O)N(c5ccc(F)c(Cl)c5)C4=O)cc3F)ccnc2cc1OCCCN1CCC(C)CC1', 1.94),
  ('COc1cc2c(Oc3ccc(N/C=C4\C(=O)NC(=O)N(c5ccc(F)cc5)C4=O)cc3F)ccnc2cc1OCCCN1CCCCC1', 2.20),
  ('COc1cc2c(Oc3ccc(N/C=C4\C(=O)NC(=O)N(c5ccccc5C(F)(F)F)C4=O)cc3F)ccnc2cc1OCCCN1CCCC1', 2.56),
  ('COc1cc2c(Oc3ccc(N/C=C4\C(=O)NC(=O)N(c5c(C)cccc5C)C4=O)cc3F)ccnc2cc1OCCCN1CCOCC1', 1.93),
  ('COc1cc2c(Oc3ccc(N/C=C4\C(=O)NC(=O)N(c5ccccc5)C4=O)cc3F)ccnc2cc1OCCCN1CCOCC1', 2.41),
  ('COc1cc(N2C(=O)NC(=O)/C(=C\Nc3ccc(Oc4ccnc5cc(OCCCN6CCCC6)c(OC)cc45)c(F)c3)C2=O)c(OC)cc1Cl', 2.85),
  ('COc1cc2c(Oc3ccc(N/C=C4\C(=O)NC(=O)N(c5ccc(F)cc5)C4=O)cc3F)ccnc2cc1OCCCN1CCC(C)CC1', 2.04),
  ('COc1cc2c(Oc3ccc(N/C=C4\C(=O)NC(=O)N(c5ccc(F)cc5)C4=O)cc3F)ccnc2cc1OCCCN1CCOCC1', 2.08),
  ('COc1cc(N2C(=O)NC(=O)/C(=C\Nc3ccc(Oc4ccnc5cc(OCCCN6CCC(C)CC6)c(OC)cc45)c(F)c3)C2=O)c(OC)cc1Cl', 2.76),
  ('COc1cc(N2C(=O)NC(=O)/C(=C\Nc3ccc(Oc4ccnc5cc(OCCCN6CCN(C)CC6)c(OC)cc45)c(F)c3)C2=O)c(OC)cc1Cl', 3.26),
  ('COc1cc2c(Oc3ccc(N/C=C4\C(=O)NC(=O)N(c5ccccc5C(F)(F)F)C4=O)cc3F)ccnc2cc1OCCCN1CCOCC1', 3.36);

----------
Reported pIC50 is given for each of the following compounds.
# assayedTarget: Hepatocyte growth factor receptor (Homo sapiens)
# Sequence (P08581 whole entry): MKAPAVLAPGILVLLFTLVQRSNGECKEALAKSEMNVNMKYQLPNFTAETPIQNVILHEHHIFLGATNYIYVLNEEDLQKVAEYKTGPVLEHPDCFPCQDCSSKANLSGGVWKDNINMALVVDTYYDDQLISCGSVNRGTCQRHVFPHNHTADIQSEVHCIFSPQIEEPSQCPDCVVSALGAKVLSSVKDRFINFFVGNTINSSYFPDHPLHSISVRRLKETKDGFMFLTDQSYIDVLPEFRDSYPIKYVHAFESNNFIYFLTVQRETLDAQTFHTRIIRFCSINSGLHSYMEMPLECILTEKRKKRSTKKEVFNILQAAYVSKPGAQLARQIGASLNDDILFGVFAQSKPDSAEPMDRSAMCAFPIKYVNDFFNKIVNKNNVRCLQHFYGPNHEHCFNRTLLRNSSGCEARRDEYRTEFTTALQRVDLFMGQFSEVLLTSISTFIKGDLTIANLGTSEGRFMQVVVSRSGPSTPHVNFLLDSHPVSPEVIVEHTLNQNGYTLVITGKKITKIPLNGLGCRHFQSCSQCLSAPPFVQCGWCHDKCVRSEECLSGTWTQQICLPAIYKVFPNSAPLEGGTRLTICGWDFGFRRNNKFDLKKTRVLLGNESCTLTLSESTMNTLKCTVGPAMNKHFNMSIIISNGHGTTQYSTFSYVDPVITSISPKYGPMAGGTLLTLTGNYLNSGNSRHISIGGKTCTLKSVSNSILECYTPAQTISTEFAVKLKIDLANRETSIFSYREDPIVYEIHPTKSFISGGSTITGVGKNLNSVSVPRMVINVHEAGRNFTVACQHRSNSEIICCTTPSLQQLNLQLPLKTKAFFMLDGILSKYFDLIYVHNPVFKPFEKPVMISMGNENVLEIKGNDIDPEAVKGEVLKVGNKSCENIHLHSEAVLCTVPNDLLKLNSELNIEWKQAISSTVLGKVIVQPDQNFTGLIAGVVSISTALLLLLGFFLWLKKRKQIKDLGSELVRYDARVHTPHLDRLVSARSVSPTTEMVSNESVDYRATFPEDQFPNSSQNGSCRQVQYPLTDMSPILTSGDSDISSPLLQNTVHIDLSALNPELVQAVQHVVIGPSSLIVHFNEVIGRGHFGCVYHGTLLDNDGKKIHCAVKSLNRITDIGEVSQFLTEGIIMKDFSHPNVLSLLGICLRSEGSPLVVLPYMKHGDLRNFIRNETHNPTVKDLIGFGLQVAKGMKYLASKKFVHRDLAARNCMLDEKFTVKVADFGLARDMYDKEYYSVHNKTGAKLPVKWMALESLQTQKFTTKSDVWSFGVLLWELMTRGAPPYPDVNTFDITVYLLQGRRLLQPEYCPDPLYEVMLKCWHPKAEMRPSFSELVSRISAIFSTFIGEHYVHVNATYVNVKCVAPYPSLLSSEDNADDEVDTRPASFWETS
# protocolDetails: Inhibition of c-Met (unknown origin) using poly (Glu, Tyr) 4:1 after 30 mins by HTRF assay
pIC50: −log10 of the molar value.
experimentalEndpoint: pIC50

INSERT INTO measurements (compoundstructure, experimentalendpoint, measuredresult) VALUES
  ('COc1cc2c(Oc3ccc(N/C=C4\C(=O)NC(=O)N(c5ccccc5C(F)(F)F)C4=O)cc3F)ccnc2cc1OCCCN1CCCC1', 'pIC50', 8.12),
  ('COc1cc2c(Oc3ccc(N/C=C4\C(=O)NC(=O)N(c5ccc(F)cc5F)C4=O)cc3F)ccnc2cc1OCCCN1CCCC1', 'pIC50', 7.91),
  ('COc1cc2c(Oc3ccc(N/C=C4\C(=O)NC(=O)N(c5ccccc5C(F)(F)F)C4=O)cc3F)ccnc2cc1OCCCN1CCN(C)CC1', 'pIC50', 8.09),
  ('COc1cc(N2C(=O)NC(=O)/C(=C\Nc3ccc(Oc4ccnc5cc(OCCCN6CCCC6)c(OC)cc45)c(F)c3)C2=O)c(OC)cc1Cl', 'pIC50', 7.77),
  ('COc1cc2c(Oc3ccc(N/C=C4\C(=O)NC(=O)N(c5ccc(F)cc5F)C4=O)cc3F)ccnc2cc1OCCCN1CCOCC1', 'pIC50', 7.91),
  ('COc1cc2c(Oc3ccc(N/C=C4\C(=O)NC(=O)N(c5ccc(F)cc5F)C4=O)cc3F)ccnc2cc1OCCCN1CCC(C)CC1', 'pIC50', 7.80);
